Tested on: NCI-H226 lung
Test: NCI tumour cell line growth inhibition, 48 h
// reported TGI per item

Solved entries:
Problem: Missing value: TGI, NCI-H226 lung, entry O=C(/C=C/c1ccccc1)CC(=O)CCC(=O)Nc1ccc(Cl)cc1 . Fill in?
Result: > 100 µM

Problem: Try this molecule next: COc1ccc(NC(=S)NC(=O)c2ccc3c(c2)Sc2ccccc2O3)c([N+](=O)[O-])c1
Result: > 100 µM

Turning now to a further record.
Problem: Missing value: TGI, NCI-H226 lung, entry Nc1ccc(/C=C/C(=O)NCc2cc3cc(-c4ccc(C(=O)N5CCC(F)(F)CC5)cc4)cc(-c4ccc(F)cc4)c3o2)cn1 . Fill in?
Result: > 100 µM

----------
Test system: SF-539 CNS
Assay: NCI tumour cell line growth inhibition, 48 h
MEASURE: TGI (µM)
A number alone suffices; assume µM.

Problem: Which measured TGI value corresponds to COc1nc(C#CC(C)(C)C)nc(OC)n1 ?
Result: 83.1

Problem: Try this compound next: COc1ccc(C(=O)c2ccc([As]=O)cc2)cc1 (stereo not given)
Result: 0.163

Problem: Try this compound next: CC(=O)c1cnc2oc3ccc(O)cc3c2c1-c1ccccc1
Result: 46.2

----------
Tested on: NCI/ADR-RES ovarian
Assay: NCI tumour cell line growth inhibition, 48 h
// reported TGI per item

Problem: Which measured TGI value corresponds to N#Cc1c(-c2ccccc2)cc(-c2ccc(Cl)cc2)[nH]c1=S ?
Result: > 100 µM

Problem: Try this compound next: COC1CC(OC2CCC3(C)C(=CCC4C3C(OC(C)=O)C(OC(=O)CC(C)C)C3(C)C(C(C)=O)CCC43O)C2)OC(C)C1OC1CC(OC)C(OC2CC(OC)C(OC3OC(C)C(OC4OC(CO)C(O)C(O)C4O)C(OC)C3O)C(C)O2)C(C)O1 (stereo unspecified)
Result: > 75 µM

Problem: Try this compound next: Cc1ccc(/C=C2\Cc3c(C)cc(C)cc3C2=O)c(C(=O)O)c1
Result: > 100 µM

Problem: Try this compound next: COc1ccc(CN2C3CC2CN(c2ccc(-c4cc(OCC(C)(C)O)cn5ncc(C#N)c45)cn2)C3)cn1
Result: > 100 µM

Problem: Try this compound next: O=c1[nH]nc(Cc2ccccc2)n1/N=C/c1ccncc1
Result: > 100 µM

Problem: Try this compound next: C[n+]1c(-c2ccc(/C=C/C=N\NC(=O)c3ccc(C(=O)N/N=C\C=C\c4ccc(-c5cn6ccccc6[n+]5C)cc4)cc3)cc2)cn2ccccc21
Result: > 100 µM

Problem: Try this compound next: CN1/C(=C\C=C\C2=[N+](C)c3ccccc3C2(C)C)C(C)(C)c2ccccc21
Result: 4.97 µM

Problem: Try this compound next: CC(=O)OC(Cn1cncn1)(Cn1cncn1)c1ccc(Cl)cc1Cl
Result: > 100 µM

Problem: Try this compound next: C=C1C(=O)O[C@H]2[C@H]1CC/C(COC(=O)NCC(C)c1ccc(CC(C)C)cc1)=C\CC[C@@]1(C)O[C@@H]21 (stereo partly specified)
Result: 10.1 µM

Problem: Try this compound next: Oc1ccccc1-c1nn(CNc2ccccc2Cl)c(=S)o1
Result: 72.7 µM

---
Problem: Which measured TGI value corresponds to COc1cc2c(cc1OC)-c1cc3ccccc3c(=O)n1CC2 ?
Result: > 100 µM

Problem: Try this compound next: OCc1ccc2c(c1)CC1(Cc3ccc(/C=N/O)cc3C1)C2 (stereo unspecified)
Result: 37 µM

Problem: Try this compound next: O=c1cc(N2CCCC2)[nH]c(=O)n1-c1ccccc1
Result: > 100 µM

Reference source: PubChem BioAssay (NCI)
